Where these numbers come from: the supplement of paper PMC6757056

As shown below, each of these variants has a reported normalized RNA/DNA level without ligand (log10) value.
B1: library; a variant is named by its letters at N, in order (parent)
chain: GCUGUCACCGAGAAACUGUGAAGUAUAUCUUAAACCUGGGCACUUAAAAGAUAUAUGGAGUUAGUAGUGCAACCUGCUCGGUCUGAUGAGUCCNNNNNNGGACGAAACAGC

Variants of: B1
Test: normalized RNA/DNA level without ligand (relative to sTRSVctl = 100) (log10 (% of sTRSVctl)); HEK293T; ligand: cyclic di-GMP (c-di-GMP-II aptamer); higher = less ribozyme self-cleavage, higher mRNA level
Conditions: reporter: mCherry (pCS4076), ligand present: no
The answer should be written as a number, with no unit following it.

// known answers, use as guide
Quick one: normalized RNA/DNA level without ligand (log10) for GCUGUCACCGAGAAACUGUGAAGUAUAUCUUAAACCUGGGCACUUAAAAGAUAUAUGGAGUUAGUAGUGCAACCUGCUCGGUCUGAUGAGUCCGUAUCUGGACGAAACAGC [GUAUCU] ?
1.68

What about this variant? GCUGUCACCGAGAAACUGUGAAGUAUAUCUUAAACCUGGGCACUUAAAAGAUAUAUGGAGUUAGUAGUGCAACCUGCUCGGUCUGAUGAGUCCUACAAGGGACGAAACAGC [UACAAG]
1.69

Follow-up entry: GCUGUCACCGAGAAACUGUGAAGUAUAUCUUAAACCUGGGCACUUAAAAGAUAUAUGGAGUUAGUAGUGCAACCUGCUCGGUCUGAUGAGUCCCUAAGUGGACGAAACAGC [CUAAGU]
1.75

Further cases:
What value of normalized RNA/DNA level without ligand (log10) has been recorded for this entry: GCUGUCACCGAGAAACUGUGAAGUAUAUCUUAAACCUGGGCACUUAAAAGAUAUAUGGAGUUAGUAGUGCAACCUGCUCGGUCUGAUGAGUCCAGAGCCGGACGAAACAGC [AGAGCC]
1.78
